System: Pseudomonas aeruginosa
Experiment: Compound was tested for its minimal inhibitory concentration against Pseudomonas aeruginosa 26
Format: functional
quantity_kind: MIC (µg/mL)
Write it as a number; the unit µg/mL goes unstated.

Task item: Give me measured MIC, please, for this molecule: `C/C(=C\[C@@H]1CCCN1)C1=C(C(=O)O)N2C(=O)[C@H]([C@@H](C)O)[C@H]2C1`
Reply: 3.13

Task item: Report MIC for `C[C@@H](O)[C@H]1C(=O)N2C(C(=O)O)=C(/C=C/[C@@H]3CCCN3)[C@H](C)[C@H]12`
Reply: 3.13

Task item: # return recorded MIC for entry `COC/C(=C\[C@@H]1CCCN1)C1=C(C(=O)O)N2C(=O)[C@H]([C@@H](C)O)[C@H]2C1`
Reply: 25

Task item: Hello, please tell me recorded MIC for this one: `C[C@@H](O)[C@H]1C(=O)N2C(C(=O)O)=C(/C=C/[C@@H]3CCCN3)C[C@H]12`
Reply: 3.13

Task item: Please report MIC for the following molecule: C[C@@H](O)[C@H]1C(=O)N2C(C(=O)O)=C(SCCNC=N)C[C@H]12.O [IMIPENEM]
Reply: 0.78

Task item: Please indicate MIC recorded for `CSC/C(=C\[C@@H]1CCCN1)C1=C(C(=O)O)N2C(=O)[C@H]([C@@H](C)O)[C@H]2C1`
Reply: 25
